- system: Serine/threonine-protein kinase TAO2 (Homo sapiens) (UniProt Q9UL54)
- Sequence (whole entry): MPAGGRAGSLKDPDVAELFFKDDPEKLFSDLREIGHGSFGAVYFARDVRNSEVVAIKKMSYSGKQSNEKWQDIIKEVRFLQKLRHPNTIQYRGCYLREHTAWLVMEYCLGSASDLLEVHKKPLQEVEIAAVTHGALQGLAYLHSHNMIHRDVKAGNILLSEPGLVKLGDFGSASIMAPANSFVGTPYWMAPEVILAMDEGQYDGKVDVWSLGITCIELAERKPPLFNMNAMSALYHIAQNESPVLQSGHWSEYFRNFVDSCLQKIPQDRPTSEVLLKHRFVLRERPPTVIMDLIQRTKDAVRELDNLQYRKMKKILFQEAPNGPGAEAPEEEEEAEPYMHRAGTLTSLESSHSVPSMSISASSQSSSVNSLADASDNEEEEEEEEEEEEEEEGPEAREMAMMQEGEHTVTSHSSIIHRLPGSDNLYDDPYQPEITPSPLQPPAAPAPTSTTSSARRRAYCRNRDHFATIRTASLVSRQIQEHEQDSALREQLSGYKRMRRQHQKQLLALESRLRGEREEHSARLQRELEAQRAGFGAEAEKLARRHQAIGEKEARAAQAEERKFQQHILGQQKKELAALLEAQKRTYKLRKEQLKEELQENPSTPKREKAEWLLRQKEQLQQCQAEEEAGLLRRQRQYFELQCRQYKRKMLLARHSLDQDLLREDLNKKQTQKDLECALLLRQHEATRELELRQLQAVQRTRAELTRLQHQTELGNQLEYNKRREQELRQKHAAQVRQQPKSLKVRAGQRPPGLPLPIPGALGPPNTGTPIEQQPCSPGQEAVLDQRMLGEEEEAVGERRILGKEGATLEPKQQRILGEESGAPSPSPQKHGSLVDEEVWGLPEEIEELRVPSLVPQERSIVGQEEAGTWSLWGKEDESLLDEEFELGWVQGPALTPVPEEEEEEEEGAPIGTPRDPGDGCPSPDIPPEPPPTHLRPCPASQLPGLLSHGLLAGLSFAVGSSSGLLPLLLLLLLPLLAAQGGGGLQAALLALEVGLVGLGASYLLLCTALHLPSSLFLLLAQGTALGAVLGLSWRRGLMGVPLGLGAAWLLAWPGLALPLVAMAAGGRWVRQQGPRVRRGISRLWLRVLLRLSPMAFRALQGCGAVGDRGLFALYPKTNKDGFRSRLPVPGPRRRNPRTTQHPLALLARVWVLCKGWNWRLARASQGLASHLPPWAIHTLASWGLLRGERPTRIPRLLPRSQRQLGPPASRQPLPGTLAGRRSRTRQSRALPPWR
- condition description: at 1 µM
Assign labels as follows, please: Met for residual activity below 90%; Not met for residual activity equal to or exceeding 90%.

substance smiles	category
O=C(CCCc1ccc(-c2ccccc2F)cc1)Nc1ccc(O)cc1	Not met
O=C1Nc2ccc(Cl)cc2/C1=C/c1cc(Cl)c(O)c(Cl)c1	Met
CN(C)S(=O)(=O)c1ccc2c(c1)/C(=C/c1cc3c([nH]1)CCCC3)C(=O)N2	Not met
Cn1sc(=O)n(Cc2ccccc2)c1=O	Not met
CCCC(=O)Oc1ccc2[nH]c(C(=O)c3cc4ccccc4[nH]3)cc2c1	Not met
CCCCc1c(-c2ccc(O)cc2)[nH]c2nccnc12	Met
NC(=O)Nc1sc(-c2ccc(F)cc2)cc1C(N)=O	Met
Nc1nc(Nc2ccc(S(N)(=O)=O)cc2)nn1C(=O)c1c(F)cccc1F	Met
O=c1cc(N2CCOCC2)oc2c1ccc1ccccc12	Not met

---

- system: Serine/threonine-protein kinase 3 (Homo sapiens) (UniProt Q13188)
- Sequence (Q13188 whole entry): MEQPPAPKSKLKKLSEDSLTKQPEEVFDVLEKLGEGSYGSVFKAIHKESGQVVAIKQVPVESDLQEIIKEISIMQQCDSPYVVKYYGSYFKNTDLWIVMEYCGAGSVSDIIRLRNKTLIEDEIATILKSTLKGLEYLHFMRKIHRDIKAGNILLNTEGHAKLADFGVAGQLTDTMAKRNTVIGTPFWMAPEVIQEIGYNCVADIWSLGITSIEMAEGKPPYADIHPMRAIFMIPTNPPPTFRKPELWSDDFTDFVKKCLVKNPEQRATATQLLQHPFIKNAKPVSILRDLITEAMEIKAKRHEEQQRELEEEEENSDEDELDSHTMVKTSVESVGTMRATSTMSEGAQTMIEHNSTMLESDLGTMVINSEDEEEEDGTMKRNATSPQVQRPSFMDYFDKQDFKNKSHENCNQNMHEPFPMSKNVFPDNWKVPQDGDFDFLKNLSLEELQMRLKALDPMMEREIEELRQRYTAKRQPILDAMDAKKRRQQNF
- condition description: at 1 µM
Entries and their residual activity values follow.

compound	residual activity
O=C1NC(=O)c2c1c1c3ccccc3[nH]c1n1cncc21	68%
CC(C)(C)c1nc2c3ccc(F)cc3c3c(=O)[nH]ccc3c2[nH]1	14%
O=C(NC(NC(=S)Nc1ccc(F)c([N+](=O)[O-])c1)C(Cl)(Cl)Cl)C(c1ccccc1)c1ccccc1 (stereo not given)	98%
O=C(Nc1nc2ccccc2n1CCN1CCOCC1)c1cccc([N+](=O)[O-])c1	102%
Nc1ncnc2[nH]nc(Nc3ccc(F)cc3)c12	104%

---

Entries and their residual activity values follow.
- system: Fibroblast growth factor receptor 3 (Homo sapiens)
- condition description: at 10 µM
value type: residual activity (%)

substance smiles	measurement
Nc1nccc(-c2c(-c3ccc(F)cc3)ncn2C2CCNCC2)n1	83
CC(C)[C@H](CO)Nc1nc(Nc2cc(N)cc(Cl)c2)c2ncn(C(C)C)c2n1	20
Nc1nc(Nc2ccc(S(N)(=O)=O)cc2)nn1C(=O)c1c(F)cccc1F	4
Nc1ncnc2c1cnn2-c1ccccc1	83
CN(C)S(=O)(=O)c1ccc2c(c1)/C(=C/c1cc3c([nH]1)CCCC3)C(=O)N2	90
CCN(CC)CCNC(=O)c1c(C)[nH]c(/C=C2\C(=O)Nc3ccc(Cl)cc32)c1C	1
COc1ccc(CNC(=O)Nc2ncc([N+](=O)[O-])s2)cc1	113
O=C(O)/C=C/c1cc(Br)c(Br)c(Br)c1Br	99

---

- system: Tyrosine-protein kinase HCK (Homo sapiens)
- condition description: at 1 µM

compound	system	residual activity [%]
CSc1nc(-c2ccc(F)cc2)c(-c2ccnc(NC(C)c3ccccc3)c2)[nH]1 (stereo unspecified)	Tyrosine-protein kinase HCK (Homo sapiens)	102
CCCCc1c(-c2ccc(OC)cc2)[nH]c2nccnc12	Tyrosine-protein kinase HCK (Homo sapiens)	75
O=C1Cc2c([nH]c3ccc([N+](=O)[O-])cc23)-c2ccccc2N1	Tyrosine-protein kinase HCK (Homo sapiens)	81
COc1cc2nccc(Oc3ccc(NC(=O)Nc4cc(C)on4)c(Cl)c3)c2cc1OC	Tyrosine-protein kinase HCK (Homo sapiens)	5
O=C(c1cc2cc(O)ccc2[nH]1)c1cc2cc(O)ccc2[nH]1	Tyrosine-protein kinase HCK (Homo sapiens)	8
CCN(CC)CCNC(=O)c1c(C)[nH]c(/C=C2\C(=O)Nc3ccc(Cl)cc32)c1C	Tyrosine-protein kinase HCK (Homo sapiens)	9

---

Entries and their residual activity values follow.
- system: Casein kinase I isoform gamma-1 (Homo sapiens) (UniProt Q9HCP0)
- Sequence (Q9HCP0 whole entry, looked up, canonical isoform): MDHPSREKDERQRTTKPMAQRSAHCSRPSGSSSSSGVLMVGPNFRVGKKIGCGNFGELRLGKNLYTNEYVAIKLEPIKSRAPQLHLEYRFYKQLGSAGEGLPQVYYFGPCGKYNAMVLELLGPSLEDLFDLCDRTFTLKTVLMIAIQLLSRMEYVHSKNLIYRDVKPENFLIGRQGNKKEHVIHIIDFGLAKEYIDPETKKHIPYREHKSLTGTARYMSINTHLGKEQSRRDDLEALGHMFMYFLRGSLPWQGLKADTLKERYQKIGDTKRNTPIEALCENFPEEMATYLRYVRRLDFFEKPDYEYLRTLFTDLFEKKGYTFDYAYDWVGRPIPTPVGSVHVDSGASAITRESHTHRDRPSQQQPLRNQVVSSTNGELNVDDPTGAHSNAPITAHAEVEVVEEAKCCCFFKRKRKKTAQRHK
- condition description: at 1 µM
- Description: Millipore: Percentage of residual kinase activity of CSNK1G1 at 1uM relative to control. Control inhibitor: Phosphoric acid* at 0.3uM. Buffer: 8 mM MOPS pH 7.0, 0.2 mM EDTA

substance smiles	residual activity / %
CCN1/C(=C/C(C)=O)Sc2ccc(OC)cc21	69
Nc1ncnc2c1c(-c1ccc(Oc3ccccc3)cc1)cn2C1CCCC1	88
COc1ccc(-c2cnc3c(-c4ccsc4)cnn3c2)cc1	98
CC(C)N(CCC(=O)c1ccc2ccccc2c1)Cc1ccccc1	82
O=C1NC(=O)c2c1c1c3ccccc3[nH]c1n1cncc21	58
Nc1n[nH]c2nc3ccccc3nc12	79
NC(=O)Nc1sc(-c2ccc(F)cc2)cc1C(N)=O	104
O=C1NC(=O)C(c2cn(CCCO)c3ncccc23)=C1c1cnccn1	93
O=c1cc(N2CCNCC2)oc2c(-c3ccccc3)cccc12	97
Cn1sc(=O)n(Cc2ccccc2)c1=O	96
NC(=O)c1ccc(-c2nc(-c3ccc4c(c3)OCCO4)c(-c3ccccn3)[nH]2)cc1	82
O=C(CCCc1ccc(-c2ccccc2F)cc1)Nc1ccc(O)cc1	107

---

Entries and their residual activity values follow.
- system: Ribosomal protein S6 kinase alpha-6 (Homo sapiens) (UniProt Q9UK32)
- Sequence (Q9UK32 whole entry): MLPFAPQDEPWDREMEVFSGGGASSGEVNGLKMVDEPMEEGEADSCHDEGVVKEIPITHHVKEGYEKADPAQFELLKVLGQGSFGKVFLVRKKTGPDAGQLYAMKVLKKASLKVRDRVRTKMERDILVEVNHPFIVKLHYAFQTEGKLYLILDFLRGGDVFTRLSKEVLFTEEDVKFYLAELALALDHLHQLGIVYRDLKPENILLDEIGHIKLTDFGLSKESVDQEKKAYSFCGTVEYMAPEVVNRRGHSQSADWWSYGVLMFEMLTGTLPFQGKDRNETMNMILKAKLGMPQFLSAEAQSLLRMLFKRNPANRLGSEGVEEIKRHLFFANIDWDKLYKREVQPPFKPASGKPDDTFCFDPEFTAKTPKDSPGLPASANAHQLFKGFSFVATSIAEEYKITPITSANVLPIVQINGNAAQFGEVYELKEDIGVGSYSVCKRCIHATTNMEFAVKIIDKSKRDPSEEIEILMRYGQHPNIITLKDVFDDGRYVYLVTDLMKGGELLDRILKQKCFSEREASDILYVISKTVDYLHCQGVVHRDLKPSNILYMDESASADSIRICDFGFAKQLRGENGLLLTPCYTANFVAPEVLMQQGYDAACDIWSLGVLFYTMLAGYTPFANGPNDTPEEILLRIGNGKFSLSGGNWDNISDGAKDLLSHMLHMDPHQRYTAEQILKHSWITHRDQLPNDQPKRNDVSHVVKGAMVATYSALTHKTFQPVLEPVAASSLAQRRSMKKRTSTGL
- condition description: at 1 µM

compound	units text	residual activity
O=C(CCCc1ccc(-c2ccccc2F)cc1)Nc1ccc(O)cc1	%	104
O=C1NC(=O)C(c2c[nH]c3ccccc23)=C1c1c[nH]c2ccccc12	%	9
O=C1Cc2c([nH]c3ccc([N+](=O)[O-])cc23)-c2ccccc2N1	%	64
N#C/C(=C1/Nc2ccccc2S1)c1ccnc(NCCc2cccnc2)n1	%	63
CCOC(=O)c1c(C)[nH]c(/C=C2\C(=O)Nc3ccccc32)c1C	%	88
O=S(=O)(c1cccc2cnccc12)N1CCCNCC1	%	85
O=C(c1cc2cc(O)ccc2[nH]1)c1cc2cc(O)ccc2[nH]1	%	26
CC(C)[C@H](CO)Nc1nc(Nc2cc(N)cc(Cl)c2)c2ncn(C(C)C)c2n1	%	18
O=C1C(Cl)=C(N2C(=O)CCC2=O)C(=O)c2ccccc21	%	92
COc1cc2ncnc(Nc3cccc(Cl)c3)c2cc1OC	%	123
NC(=O)c1ccc(-c2nc(-c3ccc4c(c3)OCCO4)c(-c3ccccn3)[nH]2)cc1	%	90
Nc1n[nH]c2nc3ccccc3nc12	%	83
Cc1cc(C)c(/C=C2\C(=O)Nc3ccccc32)[nH]1	%	38
CC(C)c1nn(-c2c(Cl)cccc2Cl)c2nc(Cc3ccc(OCCO)cc3)[nH]c(=O)c12	%	71
COc1ccc(-c2cnc3c(-c4ccsc4)cnn3c2)cc1	%	100
Nc1ncnc2c1c(-c1ccc(Oc3ccccc3)cc1)cn2C1CCCC1	%	91
Cn1c2ccccc2c2c3c(c4c5ccccc5n(CCC#N)c4c21)CNC3=O	%	4
O=S(=O)(NCCNC/C=C/c1ccc(Br)cc1)c1cccc2cnccc12	%	18
CCCCc1c(-c2ccc(OC)cc2)[nH]c2nccnc12	%	89
O=C1NC(=O)c2c1c1c3ccccc3[nH]c1n1cncc21	%	37
O=C1Nc2ccccc2/C1=C\c1c(Cl)[nH]c2ccccc12	%	51
CC(C)(C)c1nc2c3ccc(F)cc3c3c(=O)[nH]ccc3c2[nH]1	%	42
Nc1ncnc2[nH]nc(Nc3ccc(F)cc3)c12	%	48
CSc1nc(-c2ccc(F)cc2)c(-c2ccnc(NC(C)c3ccccc3)c2)[nH]1 (configuration not stated)	%	86
COc1cc2c(cc1OC)-c1n[nH]c(Nc3cccc(F)c3)c1C2	%	105
COc1ccc(COc2ccc(Cc3cnc(N)nc3N)cc2OC)cc1	%	110
COc1cc2nccc(Oc3ccc(NC(=O)Nc4cc(C)on4)c(Cl)c3)c2cc1OC	%	99

Measured values drawn from ChEMBL document CHEMBL2218924 for this set.
